Molecular target: SARM1 TIR domain (Homo sapiens)
Sequence (Q6SZW1 561-724): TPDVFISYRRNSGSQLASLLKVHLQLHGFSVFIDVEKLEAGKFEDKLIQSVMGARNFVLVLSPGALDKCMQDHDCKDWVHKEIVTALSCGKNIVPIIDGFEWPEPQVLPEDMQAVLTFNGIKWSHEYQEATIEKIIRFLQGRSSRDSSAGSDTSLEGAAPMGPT
Test: Continuous fluorescent ENAD hydrolysis assay, SARM1 TIR domain in lysate
Format: biochemical
Observation type: pIC50
Keep it numeric: pIC50 is minus log10 of the concentration in mol/L.

Request body: readout pIC50, system SARM1 TIR domain (Homo sapiens), query NC(=O)c1cnccc1Cl [4–CN, 4–chloronicotinamide] . Return the value.
3.19
